TARGET_OF_ASSAY: FAAH (Rattus norvegicus, UniProt P97612)
Construct: Preparation of Rat Brain Membranes Preparations (FAAH Enzyme Solution); from tissue; host or cells: rat cerebrum (brain membrane preparation)
ASSAY_METHOD_TEXT: Determination of FAAH inhibitory activity in rat (rat brain membrane preparations, [3H]-anandamide hydrolysis)
Type: biochemical
REPORTED_CONDITIONS: rat brain membrane preparations; test substance 0.1 nM to 1 μM; read-out: FAAH Inhibition IC50
READOUT_LABEL: IC50 (nM)

Q: Recorded IC50 of Cn1c(=O)n(C(=O)N2CCC2)c2nc(-c3ccccc3)ncc21 [compound 352] , please.
A: 164

Q: Given the entry CCN(C)C(=O)n1c(=O)n(C)c2cnc(-c3ccc(OC(F)F)cc3)nc21 [compound 345] , report its measured IC50.
A: 9

Q: GET /values?readout=IC50&item= COc1cccc(-c2ncc3c(n2)n(C)c(=O)n3C(=O)N(C)CCc2ccc(C(F)(F)F)cc2)c1 [Example 92]
A: 4

Q: IC50 lookup needed for Cn1c(=O)n(C(=O)N2CCCC2)c2cnc(-c3ccc(F)c(F)c3)nc21 [compound 190] , thanks.
A: 6

Q: Name the recorded IC50 for CC(C)c1ncc2c(n1)n(C)c(=O)n2C(=O)N1CCCC1 [Example 275] .
A: 64

[I] COCc1ncc2c(n1)n(C)c(=O)n2C(=O)N1CC(c2ccccc2C)C1 [compound 442]
[II] CCN(C)C(=O)n1c(=O)n(C)c2nc(CC(C)(C)C)ncc21 [Example 160]
[III] Cc1ccc(OCc2ncc3c(n2)n(C(=O)N2CCC2)c(=O)n3C)cc1 [Example 424]
Q: Order field: IC50 | Direction: descending (largest first) Put the labels in the order asked and list them.
A: I, III, II
(I: 74 nM, III: 26 nM, II: 14 nM)

----------
TARGET_OF_ASSAY: FAAH (Rattus norvegicus, UniProt P97612)
Construct: Preparation of Rat Brain Membranes Preparations (FAAH Enzyme Solution); from tissue; host or cells: rat cerebrum (brain membrane preparation)
Sequence (P97612 1-579): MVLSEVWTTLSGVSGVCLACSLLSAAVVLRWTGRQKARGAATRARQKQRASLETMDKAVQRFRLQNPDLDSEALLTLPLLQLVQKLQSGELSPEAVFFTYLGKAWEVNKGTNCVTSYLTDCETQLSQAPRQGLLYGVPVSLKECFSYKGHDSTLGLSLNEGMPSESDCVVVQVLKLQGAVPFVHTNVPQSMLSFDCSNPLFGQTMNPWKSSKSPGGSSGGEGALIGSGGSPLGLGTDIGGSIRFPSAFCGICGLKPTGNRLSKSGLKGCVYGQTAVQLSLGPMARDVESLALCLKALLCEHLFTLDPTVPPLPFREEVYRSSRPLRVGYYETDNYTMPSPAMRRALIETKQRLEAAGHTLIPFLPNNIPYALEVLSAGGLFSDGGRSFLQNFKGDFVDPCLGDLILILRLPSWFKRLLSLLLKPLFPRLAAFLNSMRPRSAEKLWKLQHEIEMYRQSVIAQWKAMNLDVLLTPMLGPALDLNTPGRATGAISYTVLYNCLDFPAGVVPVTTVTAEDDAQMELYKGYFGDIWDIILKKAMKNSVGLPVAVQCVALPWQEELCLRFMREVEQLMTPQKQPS
ASSAY_METHOD_TEXT: Determination of FAAH inhibitory activity in rat (rat brain membrane preparations, [3H]-anandamide hydrolysis)
Assay type: biochemical
REPORTED_CONDITIONS: rat brain membrane preparations; 100 nM test substance; read-out: FAAH Inhibition, Inhibition Rate at 100 nM
Description: Determination of FAAH Inhibitory Activity in Rat The preparation of rat brain membranes preparations and the determination of FAAH inhibitory activity were carried out according to the Jonsson et al. method [Br. J. Pharmacol., 133, 1263 (2001)]. (1) Preparation of Rat Brain Membranes Preparations (FAAH Enzyme Solution) The cerebrum was extracted from rats and was freeze-stored at −80° C. […]
READOUT_LABEL: inhibition at 0.1 µM (%)

Here are 3 compounds together with their reported answers.
Q: Quick one: inhibition at 0.1 µM of COCCCc1ncc2c(n1)n(C)c(=O)n2C(=O)N1CC(c2cccc(F)c2)C1 ?
A: 80

Q: What does the data say about its inhibition at 0.1 µM? Entry: COc1cccc(-c2ncc3c(n2)n(C)c(=O)n3C(=O)N(C)Cc2ccc(F)cc2)c1
A: 103

Q: For the compound shown here, COCc1ncc2c(n1)n(C)c(=O)n2C(=O)N1CC(c2cccc(OC)c2)C1 , give the reported inhibition at 0.1 µM.
A: 108

[A] Cc1cc(C)c(CCc2ncc3c(n2)n(C(=O)N(C)C)c(=O)n3C)c(C)c1
[B] Cn1c(=O)n(C(=O)N2CCC2)c2cnc(COc3ccc(Cl)cc3)nc21
Q: When the recorded inhibition at 0.1 µM values are compared, which is smaller: that of A or that of B ? Kindly give the label for the entry you pick.
A: B
(B: 54%, A: 95%)

----------
// values below are reported inhibition at 0.1 µM
TARGET_OF_ASSAY: FAAH (Rattus norvegicus, UniProt P97612)
Construct: Preparation of Rat Brain Membranes Preparations (FAAH Enzyme Solution); from tissue; host or cells: rat cerebrum (brain membrane preparation)
Sequence (P97612 1-579): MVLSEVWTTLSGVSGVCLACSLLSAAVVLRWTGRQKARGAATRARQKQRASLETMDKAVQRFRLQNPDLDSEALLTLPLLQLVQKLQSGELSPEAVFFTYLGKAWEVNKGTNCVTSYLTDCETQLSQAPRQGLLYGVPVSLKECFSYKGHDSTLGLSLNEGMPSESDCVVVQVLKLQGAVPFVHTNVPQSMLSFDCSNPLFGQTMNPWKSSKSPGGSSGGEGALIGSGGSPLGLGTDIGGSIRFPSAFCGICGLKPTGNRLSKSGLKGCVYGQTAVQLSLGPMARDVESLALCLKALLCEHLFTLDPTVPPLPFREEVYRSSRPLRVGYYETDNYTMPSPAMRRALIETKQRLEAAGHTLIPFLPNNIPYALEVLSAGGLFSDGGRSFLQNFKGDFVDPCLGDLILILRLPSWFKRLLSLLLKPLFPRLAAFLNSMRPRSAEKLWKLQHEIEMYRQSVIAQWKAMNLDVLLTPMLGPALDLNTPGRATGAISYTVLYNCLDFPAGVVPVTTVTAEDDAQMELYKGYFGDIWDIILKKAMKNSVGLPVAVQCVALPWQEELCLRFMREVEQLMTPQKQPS
ASSAY_METHOD_TEXT: Determination of FAAH inhibitory activity in rat (rat brain membrane preparations, [3H]-anandamide hydrolysis)
Assay type: biochemical
REPORTED_CONDITIONS: read-out: FAAH Inhibition, Inhibition Rate at 100 nM
Numbers only; they are read as %.

These recorded examples may help you get a feel for the data.
Q: State the recorded inhibition at 0.1 µM for this entry: COc1cccc(-c2ncc3c(n2)n(C)c(=O)n3C(=O)N(C)CCc2cccc(F)c2)c1
A: 103

Q: Given the entry COc1cccc(-c2ncc3c(n2)n(C)c(=O)n3C(=O)N2CCN(Cc3ccc(F)cc3)CC2)c1 , report its measured inhibition at 0.1 µM.
A: 98

Q: What value of inhibition at 0.1 µM has been reported for the following compound? COc1cccc(-c2ncc3c(n2)n(C)c(=O)n3C(=O)N(C)CCc2ccc(Cl)cc2)c1
A: 101

Q: Endpoint output: inhibition at 0.1 µM of COc1cccc(-c2ncc3c(n2)n(C)c(=O)n3C(=O)N2CCN(Cc3ccc(C(F)(F)F)cc3)CC2)c1 . Value?
A: 92

Q: I have this compound here, CN(CCc1ccc(Cl)cc1)C(=O)n1c(=O)n(C)c2nc(-c3ccncc3)ncc21 , and I need its recorded inhibition at 0.1 µM.
A: 106

Q: Looking for the measured inhibition at 0.1 µM of COc1cccc(-c2ncc3c(n2)n(C)c(=O)n3C(=O)N2CCN(Cc3cccc(Cl)c3)CC2)c1 , can you help?
A: 99

Q: Recorded inhibition at 0.1 µM for COc1ccc(CCN(C)C(=O)n2c(=O)n(C)c3nc(-c4cccc(OC)c4)ncc32)cc1 , please?
A: 100

Q: Which inhibition at 0.1 µM is reported for this compound? COc1cccc(-c2ncc3c(n2)n(C)c(=O)n3C(=O)N(C)CCc2cccc(Cl)c2)c1
A: 102

Q: Which inhibition at 0.1 µM is listed for COc1cccc(-c2ncc3c(n2)n(C)c(=O)n3C(=O)N2CCN(Cc3ccc(Cl)cc3)CC2)c1 ?
A: 96

Q: Query: inhibition at 0.1 µM; subject: COc1cccc(-c2ncc3c(n2)n(C)c(=O)n3C(=O)N(C)CCc2ccc(F)cc2)c1
A: 104

Next:
Q: // inhibition at 0.1 µM lookup, key: Cn1c(=O)n(C(=O)N2CCC2)c2cnc(COc3cccc(F)c3)nc21
A: 97

----------
TARGET_OF_ASSAY: FAAH (Rattus norvegicus)
Construct: Preparation of Rat Brain Membranes Preparations (FAAH Enzyme Solution); from tissue; host or cells: rat cerebrum (brain membrane preparation)
Sequence (P97612 1-579): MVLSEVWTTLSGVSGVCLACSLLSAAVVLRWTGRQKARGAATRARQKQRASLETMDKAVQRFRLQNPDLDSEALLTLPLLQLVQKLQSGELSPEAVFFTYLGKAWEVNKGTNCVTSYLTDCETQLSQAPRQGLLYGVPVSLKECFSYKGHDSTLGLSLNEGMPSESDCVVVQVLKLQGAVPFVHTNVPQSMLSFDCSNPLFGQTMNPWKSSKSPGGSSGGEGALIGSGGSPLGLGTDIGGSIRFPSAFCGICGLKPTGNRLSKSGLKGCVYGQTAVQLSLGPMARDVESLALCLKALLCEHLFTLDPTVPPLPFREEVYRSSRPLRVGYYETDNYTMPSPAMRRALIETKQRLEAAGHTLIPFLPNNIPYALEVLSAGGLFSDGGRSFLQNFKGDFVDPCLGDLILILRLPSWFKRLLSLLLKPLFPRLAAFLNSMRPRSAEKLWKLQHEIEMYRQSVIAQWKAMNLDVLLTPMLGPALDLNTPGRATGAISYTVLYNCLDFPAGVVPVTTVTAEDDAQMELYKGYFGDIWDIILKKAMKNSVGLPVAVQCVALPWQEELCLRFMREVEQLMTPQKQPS
ASSAY_METHOD_TEXT: Determination of FAAH inhibitory activity in rat (rat brain membrane preparations, [3H]-anandamide hydrolysis)
Format: biochemical
REPORTED_CONDITIONS: rat brain membrane preparations; 100 nM test substance; read-out: FAAH Inhibition, Inhibition Rate at 100 nM
READOUT_LABEL: inhibition at 0.1 µM (%)

Some entries whose results are on file:
Q: Fill blank: measured inhibition at 0.1 µM of the compound CCCOCc1ncc2c(n1)n(C)c(=O)n2C(=O)N1CC(c2ccccc2)C1 [compound 467] is ____.
A: 69

Q: # inhibition at 0.1 µM lookup, item COc1cccc(-c2ncc3c(n2)n(C)c(=O)n3C(=O)N(C)CCOc2cccc(Cl)c2)c1 [Example 90]
A: 105

Q: Quick one: inhibition at 0.1 µM of Cn1c(=O)n(C(=O)N2CCCC2)c2nc(/C=C/c3ccc(F)cc3)ncc21 [Example 245] ?
A: 80

[I] CN(C)C(=O)n1c(=O)n(C)c2cnc(-c3cccc(OC(F)F)c3)nc21 [Example 331]
[II] CCN(C)C(=O)n1c(=O)n(C)c2cnc(CCc3ccc(F)cc3)nc21 [compound 555]
[III] CN(C(=O)n1c(=O)n(C)c2nc(-c3ccccc3)ncc21)C1CCCCC1 [Example 43]
Q: Please give the order of these compounds when sorted by inhibition at 0.1 µM, largest value leading. // rank by listing labels in the order requested
A: I, II, III

[A] COCCN(C)C(=O)n1c(=O)n(C)c2nc(-c3cccc(OC)c3)ncc21 [Example 59]
[B] Cn1c(=O)n(C(=O)N2CCCC2)c2nc(Cc3ccccc3)ncc21 [compound 285]
[C] COc1cccc(-c2ncc3c(n2)n(C)c(=O)n3C(=O)N(C)CCN2CCOCC2)c1 [Example 111]
Q: Please give the order of these compounds when sorted by inhibition at 0.1 µM, largest value leading. API: response body holds the labels in the requested order.
A: A, B, C
